test system: DAPI; assay: TAG lipid buildup inhibition with viability readout – cell-based, panel, Nile Red and DAPI fluorescence, H9c2, dose response (AID 651630); settings: H9c2 cells, DAPI nuclear fluorescence (cytotoxicity counter-readout), oleic acid, mean of runs;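 also: cells exposed to compound overnight before fixation and staining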
Activity calls are given as the source filed them.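 The calls were made as follows: active = lipid-stain IC50 at or below a set limit, with nuclear-stain toxicity IC50 at least five times higher; inactive = the rest.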
PARAMETER MEASURED: IC50 cytotoxicity (DAPI nuclear signal decrease)

CC(C)(Oc1ccc(Cl)cc1)C(=O)Nc1ccc2oc(-c3ccncc3)nc2c1    > 25 µM (inactive)
Cn1nnc2c[n+](CC(=O)c3ccc(Cl)cc3)cc(Br)c21    21.5 µM (inactive)
CCCCCCC(C)(C)c1ccc([C@@H]2C[C@H](O)CC[C@H]2CCCO)c(O)c1    22 µM (inactive)
COc1ccc(-c2cnc3c(NC=O)cc(-c4cccc(NS(C)(=O)=O)c4)cn23)cc1OC    21.6 µM (inactive)
COc1cc(NC(=O)c2cc3cccc(OC)c3o2)cc(C(=O)Nc2cccc(C(F)(F)F)c2)c1    > 25 µM (inactive)
